target: Replicase polyprotein 1ab (Severe acute respiratory syndrome coronavirus 2, UniProt P0DTD1); assay: Binding affinity to C-terminal His6-tagged recombinant SARS-CoV-2 MPro expressed in Escherichia coli BL21 (DE3) assessed as dissociation constant by ITC assay
Residues, ends and D or L forms follow the SMILES beside them. *: point of attachment. Octanoyl = CCCCCCCC(=O)*; Boc = CC(C)(C)OC(=O)*
endpointName: Kd
Lab note: write values as number then unit, every time.

These recorded examples may help you get a feel for the data.
CC(=O)NCC(=O)N[C@@H](Cc1ccccc1)C(=O)N[C@H](C=O)Cc1c[nH]cn1 (Ac-Gly-Phe-His-aldehyde): 640 nM
CC(C)(C)OC(=O)NCC(=O)N[C@@H](Cc1ccccc1)C(=O)N[C@H](C=O)Cc1c[nH]cn1 (Boc-Gly-Phe-His-aldehyde): 442 nM

Let us move to another entry and its Kd.
[ask] Recorded Kd of CCCCCCCC(=O)NCC(=O)N[C@@H](Cc1ccccc1)C(=O)N[C@H](C=O)Cc1c[nH]cn1 (Octanoyl-Gly-Phe-His-aldehyde) , please.
[reply] 425 nM
